Read-out: Plasminogen activator inhibitor-1 (PAI1), SERPINE1 (gene 5054)
Assay: BSK_BE3C_PAI1: BioMAP Diversity Plus: BE3C Assay for Plasminogen activator inhibitor-1 (PAI1) Biomarker Activity (AID 2283037)
Settings: primary human bronchial epithelial cells; actives raise or lower the signal
The source made the active and inactive calls. The calls were made as follows: active = hit-call score of the fitted dose curve at least 0.9, where 1 is the maximum; inactive = score below 0.9.
Outcomes you can answer with include only these: YES = active, NO = inactive

Input line: // return assay outcome for O=C=NC1CCC(CC2CCC(N=C=O)CC2)CC1 (centres undefined)
Output line: NO

Input line: // return assay outcome for CC1COc2ccccc2N1C(=O)C(Cl)Cl (centres undefined)
Output line: YES

Input line: // return assay outcome for CC(=O)/C=C/C1=C(C)CCCC1(C)C
Output line: NO

Input line: // return assay outcome for C#C[C@]1(O)CC[C@H]2[C@@H]3CCC4=Cc5oncc5C[C@]4(C)[C@H]3CC[C@@]21C
Output line: NO

Input line: // return assay outcome for c1ccc2sc(SN(C3CCCCC3)C3CCCCC3)nc2c1
Output line: NO

Input line: // return assay outcome for CCCCC(CC)COCCC#N (centres undefined)
Output line: NO

Input line: // return assay outcome for O=[N+]([O-])c1cc(C(F)(F)F)ccc1Cl
Output line: NO

Input line: // return assay outcome for COC(=O)c1ccc(C)cc1
Output line: NO

Input line: // return assay outcome for O=P(c1ccccc1)(c1ccccc1)c1ccccc1
Output line: NO

Input line: // return assay outcome for c1ccc2c(c1)c1cccc3ccc4cccc2c4c31
Output line: NO

Input line: // return assay outcome for CC1CCC(C(C)CS)CC1S (centres undefined)
Output line: NO

Input line: // return assay outcome for CC[Si](OC(C)=O)(OC(C)=O)OC(C)=O
Output line: NO

Input line: // return assay outcome for CCCCC/C=C/C=C/C=O
Output line: NO

Input line: // return assay outcome for CC(C)(COC(=O)c1ccccc1)COC(=O)c1ccccc1
Output line: NO

Input line: // return assay outcome for Cc1ccc2n[nH]nc2c1
Output line: NO

Input line: // return assay outcome for CCCCCCCCC=O
Output line: NO

Input line: // return assay outcome for Cc1cc(C2(c3cc(C)c(O)cc3C)OS(=O)(=O)c3ccccc32)c(C)cc1O
Output line: NO

Input line: // return assay outcome for Cc1ccc(O)c(C(C)(C)C)c1
Output line: NO

Input line: // return assay outcome for CC(C)Oc1ccccc1O
Output line: NO

---

Read-out: urokinase plasminogen activator (uPA), PLAU (gene 5328)
Test: BSK_KF3CT_uPA: BioMAP Diversity Plus: KF3CT Assay for urokinase plasminogen activator (uPA) Biomarker Activity (AID 2283075)
Conditions: primary human keratinocytes with fibroblasts; actives raise or lower the signal
The source made the active and inactive calls. Rule for the calls: active = hit-call score of the fitted dose curve at least 0.9, where 1 is the maximum; inactive = score below 0.9.
Outcomes you can answer with include only these: 1.0 (active), 0.0 (inactive)

Input line: // return assay outcome for CCCCCCCCCCCCCCCCCC(=O)OCC(CC)CCCC (stereo not given)
Output line: 0.0

Input line: // return assay outcome for CCC(=O)OCc1ccccc1
Output line: 0.0

Input line: // return assay outcome for CCCCCCCCCC=O
Output line: 0.0

Input line: // return assay outcome for CN(CCOc1ccc(CC2SC(=O)NC2=O)cc1)c1ccccn1 (stereo not given)
Output line: 1.0

Input line: // return assay outcome for CC1COc2ccccc2N1C(=O)C(Cl)Cl (stereo not given)
Output line: 1.0

Input line: // return assay outcome for CC(C)Oc1ccccc1O
Output line: 0.0

Input line: // return assay outcome for BrC1CCC(Br)C(Br)CCC(Br)C(Br)CCC1Br (stereo not given)
Output line: 1.0

Input line: // return assay outcome for O=C(O)c1cn(C2CC2)c2cc(N3CCNCC3)c(F)cc2c1=O
Output line: 0.0

Input line: // return assay outcome for C=CCOC(=O)CCC1CCCCC1
Output line: 0.0

Input line: // return assay outcome for CC(=O)/C=C/C1=C(C)CCCC1(C)C
Output line: 0.0

Input line: // return assay outcome for CC(=O)OCCC(C)CC(C)(C)C (stereo not given)
Output line: 0.0

Input line: // return assay outcome for Nc1cc([N+](=O)[O-])ccc1O
Output line: 0.0

Input line: // return assay outcome for c1ccc2sc(SN(C3CCCCC3)C3CCCCC3)nc2c1
Output line: 0.0

Input line: // return assay outcome for COc1cc(C=O)ccc1OC(=O)C(C)C
Output line: 0.0

Input line: // return assay outcome for CC1CCC(C(C)CS)CC1S (stereo not given)
Output line: 1.0

Input line: // return assay outcome for CC(C)(COC(=O)c1ccccc1)COC(=O)c1ccccc1
Output line: 0.0

Input line: // return assay outcome for C[C@H]1C[C@@H]2[C@H]([C@@H](O)C[C@@]3(C)[C@H]2CC[C@]3(O)C(=O)CO)[C@@]2(C)C=CC(=O)C=C12
Output line: 0.0

Input line: // return assay outcome for O=C(O)C[C@H](O)C[C@H](O)/C=C/c1c(C2CC2)nc2ccccc2c1-c1ccc(F)cc1
Output line: 0.0

Input line: // return assay outcome for CCCCC(CC)COC(=O)/C=C\C(=O)OCC(CC)CCCC (stereo not given)
Output line: 0.0

Input line: // return assay outcome for O=C(O)c1cn(-c2ccc(F)cc2)c2cc(N3CCNCC3)c(F)cc2c1=O
Output line: 0.0

Input line: // return assay outcome for CCCCC(CC)COCCC#N (stereo not given)
Output line: 0.0

Input line: // return assay outcome for CC[Si](OC(C)=O)(OC(C)=O)OC(C)=O
Output line: 0.0

Input line: // return assay outcome for Cc1ccc(O)c(C(C)(C)C)c1
Output line: 1.0

Input line: // return assay outcome for OC[C@H]1O[C@H](O[C@]2(CCl)O[C@H](CCl)[C@@H](O)[C@@H]2O)[C@H](O)[C@@H](O)[C@H]1Cl
Output line: 0.0

Input line: // return assay outcome for CCCCCCCCC=O
Output line: 0.0
